- Target entity: Taq DNA polymerase (UniProt P19821 P19821:1-832)
- Sequence (P19821 whole entry, one chain of several): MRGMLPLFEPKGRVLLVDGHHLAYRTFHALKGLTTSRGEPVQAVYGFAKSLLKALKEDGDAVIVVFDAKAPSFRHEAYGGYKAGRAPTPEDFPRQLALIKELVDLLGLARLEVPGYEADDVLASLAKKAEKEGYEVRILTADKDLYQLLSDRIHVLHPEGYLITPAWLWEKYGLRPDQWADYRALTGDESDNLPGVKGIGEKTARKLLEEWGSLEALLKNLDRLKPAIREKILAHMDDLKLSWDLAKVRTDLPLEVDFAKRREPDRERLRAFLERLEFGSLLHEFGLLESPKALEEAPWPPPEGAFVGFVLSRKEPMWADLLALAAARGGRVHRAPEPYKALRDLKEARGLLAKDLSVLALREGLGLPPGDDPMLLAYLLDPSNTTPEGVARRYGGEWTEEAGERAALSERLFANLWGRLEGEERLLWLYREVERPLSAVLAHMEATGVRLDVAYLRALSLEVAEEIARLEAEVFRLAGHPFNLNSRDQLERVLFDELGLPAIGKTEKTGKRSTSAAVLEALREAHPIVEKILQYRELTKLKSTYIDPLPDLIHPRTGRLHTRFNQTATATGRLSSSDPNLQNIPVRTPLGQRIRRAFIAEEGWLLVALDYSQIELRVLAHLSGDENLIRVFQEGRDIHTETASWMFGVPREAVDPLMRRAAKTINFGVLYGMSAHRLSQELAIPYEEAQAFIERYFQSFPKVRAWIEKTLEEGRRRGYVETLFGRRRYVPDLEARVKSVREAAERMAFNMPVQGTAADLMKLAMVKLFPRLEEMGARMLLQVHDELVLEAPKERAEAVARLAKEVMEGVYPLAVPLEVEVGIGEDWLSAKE
- Assay procedure: inhibition; hairpin extension assay; IT50 41 C
- Test conditions: tags: rTaq, 94 kDa, Roche Molecular Systems / Perkin Elmer
Observed property: IC50

**Q:** Fill in: IC50 of D.21-D.30 heterodimer (ssDNA) DNA: TGGCGGAGCGATCATCTCAGAGCATTCTTAGCGTTTTGTTCTTGTGTATGATTTGCCGGCCAATGTACAGTATTGGCCGGC is ___
**A:** ~30 nM
